For each record, write down the corresponding protein stability index.
test system: Saccharomyces cerevisiae; experiment: protein stability index of tFT-peptide fusion (C-terminal peptide) (PSI (0-1 scale)); higher = more stable (slower turnover); details: genetic background: wild type; temperature: 30 C;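 note: PSI is a weighted mean of sequencing reads over stability bins, variants kept only with over 10 reads, mCherry proximal and sfGFP distal, peptide attached via GGGS linker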
Answer using only a numeral; do not append any unit.

Provide value of protein stability index for this record tested with Saccharomyces cerevisiae: GATRCQTYPAGA
0.686

Provide value of protein stability index for this record tested with Saccharomyces cerevisiae: QPPSPSLFFPRV
0.704

Provide value of protein stability index for this record tested with Saccharomyces cerevisiae: NLMTPAWTNFSS
0.756

Provide value of protein stability index for this record tested with Saccharomyces cerevisiae: WWEGSFRVGAVR
0.638

Provide value of protein stability index for this record tested with Saccharomyces cerevisiae: TSAPDSPVPSLP
0.695

Provide value of protein stability index for this record tested with Saccharomyces cerevisiae: GVDGGGKWRGWG
0.651

Provide value of protein stability index for this record tested with Saccharomyces cerevisiae: TFRADGYFFGRR
0.637

Provide value of protein stability index for this record tested with Saccharomyces cerevisiae: YSSFRSVNWVFP
0.684

Provide value of protein stability index for this record tested with Saccharomyces cerevisiae: CGRITADKRILL
0.65

Provide value of protein stability index for this record tested with Saccharomyces cerevisiae: WGLLCPLRSDNV
0.705

Provide value of protein stability index for this record tested with Saccharomyces cerevisiae: HFAAVFATSISG
0.675

Provide value of protein stability index for this record tested with Saccharomyces cerevisiae: RPSLPPRSPPPS
0.767

Provide value of protein stability index for this record tested with Saccharomyces cerevisiae: TLKMKHKPKKNL
0.658

Provide value of protein stability index for this record tested with Saccharomyces cerevisiae: GPSVRSTARGPG
0.724

Provide value of protein stability index for this record tested with Saccharomyces cerevisiae: GGGLGRVWVKLG
0.716

Provide value of protein stability index for this record tested with Saccharomyces cerevisiae: CSRSPASAPRPH
0.688

Provide value of protein stability index for this record tested with Saccharomyces cerevisiae: SRQDLPKYVYLY
0.508

Provide value of protein stability index for this record tested with Saccharomyces cerevisiae: ALRGSYTSFALA
0.623

Provide value of protein stability index for this record tested with Saccharomyces cerevisiae: PTPSRPPHPPLR
0.704

Provide value of protein stability index for this record tested with Saccharomyces cerevisiae: APVTFDKSHVST
0.669

Provide value of protein stability index for this record tested with Saccharomyces cerevisiae: PSLPFPPTPPPC
0.686

Provide value of protein stability index for this record tested with Saccharomyces cerevisiae: EKTKTKRERKIN
0.312

Provide value of protein stability index for this record tested with Saccharomyces cerevisiae: SLFYSPSSVFSF
0.866

Provide value of protein stability index for this record tested with Saccharomyces cerevisiae: KGHQGGLSEGMI
0.6

Provide value of protein stability index for this record tested with Saccharomyces cerevisiae: ATTVAIVFCRPA
0.616

Provide value of protein stability index for this record tested with Saccharomyces cerevisiae: PLPFWPPPPRRP
0.674

Provide value of protein stability index for this record tested with Saccharomyces cerevisiae: WFVTVISSRFGS
0.644

Provide value of protein stability index for this record tested with Saccharomyces cerevisiae: NLRSSTSKNNKR
0.659

Provide value of protein stability index for this record tested with Saccharomyces cerevisiae: WGKRGGLGALSR
0.653

Provide value of protein stability index for this record tested with Saccharomyces cerevisiae: KTNNYPDNNPPG
0.611

Provide value of protein stability index for this record tested with Saccharomyces cerevisiae: LLPHLLVLLPSS
0.623

Provide value of protein stability index for this record tested with Saccharomyces cerevisiae: YAFSTCTILIRF
0.328

Provide value of protein stability index for this record tested with Saccharomyces cerevisiae: QESGPEAGIPPL
0.722

Provide value of protein stability index for this record tested with Saccharomyces cerevisiae: HGVVGWKVNVGG
0.695

Provide value of protein stability index for this record tested with Saccharomyces cerevisiae: TLGKPVGLARLS
0.692

Provide value of protein stability index for this record tested with Saccharomyces cerevisiae: LGSSTGSVESLS
0.737

Provide value of protein stability index for this record tested with Saccharomyces cerevisiae: PLPPPPPPPHSP
0.738

Provide value of protein stability index for this record tested with Saccharomyces cerevisiae: RVVGGRDVRGGG
0.737

Provide value of protein stability index for this record tested with Saccharomyces cerevisiae: RQANQVSTSAEN
0.726

Provide value of protein stability index for this record tested with Saccharomyces cerevisiae: APTMAIIVVHVR
0.306

Provide value of protein stability index for this record tested with Saccharomyces cerevisiae: VSYLAQSFLPNL
0.699

Provide value of protein stability index for this record tested with Saccharomyces cerevisiae: SERKRMQRRVVY
0.655

Provide value of protein stability index for this record tested with Saccharomyces cerevisiae: GDLGPADRQPAG
0.639

Provide value of protein stability index for this record tested with Saccharomyces cerevisiae: RGRMGLGSPGGG
0.639

Provide value of protein stability index for this record tested with Saccharomyces cerevisiae: ALASPIPCPPPP
0.715

Provide value of protein stability index for this record tested with Saccharomyces cerevisiae: LLPLPPPPPPPP
0.685

Provide value of protein stability index for this record tested with Saccharomyces cerevisiae: DGSSESRSGTGK
0.69

Provide value of protein stability index for this record tested with Saccharomyces cerevisiae: FMLGYIRPKWGG
0.714

Provide value of protein stability index for this record tested with Saccharomyces cerevisiae: VLSVLGLGFWGG
0.804

Provide value of protein stability index for this record tested with Saccharomyces cerevisiae: FTGYPKHTRLPY
0.687

Provide value of protein stability index for this record tested with Saccharomyces cerevisiae: SPPRATVRPTSP
0.824

Provide value of protein stability index for this record tested with Saccharomyces cerevisiae: TSLIPPASPFAW
0.643

Provide value of protein stability index for this record tested with Saccharomyces cerevisiae: FALFQSFCFFCF
0.564
